These measurements were taken from patent US20250034275A1.

- assayed target: T1, human Trop-2 (on the surface of human cell lines) (human, UniProt P09758 27-323)
- T1 sequence: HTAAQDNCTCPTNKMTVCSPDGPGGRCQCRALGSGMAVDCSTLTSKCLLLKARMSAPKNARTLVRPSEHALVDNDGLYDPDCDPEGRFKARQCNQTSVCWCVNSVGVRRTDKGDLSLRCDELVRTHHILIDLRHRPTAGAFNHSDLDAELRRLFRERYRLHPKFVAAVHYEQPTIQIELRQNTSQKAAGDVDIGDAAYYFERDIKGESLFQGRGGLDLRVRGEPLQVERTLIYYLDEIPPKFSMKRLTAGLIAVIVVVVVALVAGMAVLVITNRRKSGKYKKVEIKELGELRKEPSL
- protocol details: cell-based or functional assay
Listing: ADCC reporter (Jurkat-CD16a v158-NFAT-luciferase), target cell H322, EC50 of selected binders
value kind: ADCC reporter (Jurkat-CD16a v158-NFAT-luciferase), target cell H322, EC50 (nM)

# binder, recorded result
records = [
    ("ch-Ab21 (antibody, human IgG1, kappa, V domains shown, Mouse VH/VL on human IgG1 and human kappa constant regions; also called chimeric antibody of Ab21) VH: EVQLKQSGPGLVQPSQSLSITCTVSGFSLRNYGVHWVRQSPGKGLEWLGVIWSSGTTDYNAAFISRLSITKDNSKSQVFFKMNSLQVDDTAIYNCARDGDYDYYTMDYWGQGTSVTVSS VL: AIVLTQSPASLAVSLGQRATISCRASKSVSTSAYSYIHWYQQKPGQPPKLLIYLTSNLESGVPARFSGSGSGTDFTLNIHPVEEEDAATYYCQHSRELPYTFGGGTKLEIKR", 0.04),
    ("hz-Ab2-1.2 (antibody, human IgG1, kappa, V domains shown, Humanized antibody) VH: EVQLVESGPGLIQPGGSLRLSCAVSGFSLTYYGIDWVRQPPGKGLEWVGVIWGSGNTKYNYALKSRLTISKDNSKSTLYLQMNSLRAEDTAVYYCARFYEGFAYWGQGTLVTVSS VL: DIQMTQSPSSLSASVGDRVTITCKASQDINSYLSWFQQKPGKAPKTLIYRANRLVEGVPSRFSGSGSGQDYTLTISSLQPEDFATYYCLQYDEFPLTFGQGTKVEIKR", 0.31),
    ("hz-Ab2-1.3 (antibody, human IgG1, kappa, V domains shown, Humanized antibody) VH: QVQLQESGPGLVKPSETLSLTCTVSGFSLTYYGIDWIRQPPGKGLEWIGVIWGSGNTKYNSALKSRVTISKDNSKSQFSLKLSSVTAADTAVYYCARFYEGFAYWGQGTLVTVSS VL: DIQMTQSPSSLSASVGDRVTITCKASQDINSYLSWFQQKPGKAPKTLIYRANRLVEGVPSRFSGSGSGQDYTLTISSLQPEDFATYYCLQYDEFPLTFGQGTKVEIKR", 0.17),
]
